# Method Description: Pharmacokinetics of ruxolitinib, single oral dose, plasma LC-MS/MS
# Format: in vivo, mice
# Experimental Setup: mouse, BoyJ, Male, 60 mg kg−1 oral gavage
Observable: Tmax (min)
Your answer should be a plain number; it is taken to be in min.

response.value for N#CC[C@H](C1CCCC1)n1cc(-c2ncnc3[nH]ccc23)cn1 (field: Tmax) = 15

* * *

# System: MOLM-13
# Parameters: species or system AML cell lines (8); Primary HTS, single concentration about 10 uM, Cell Titer Glo viability; log10 luminescence, per cent inhibition relative to cycloheximide control
# Experimental Setup: 72 h, relative to cycloheximide control, log10 luminescence; inhibitor
Observable: MOLM-13 %inh (%)
Your answer should be a plain number; it is taken to be in %.

CO[C@H]1O[C@@H]2O[C@@]3(C)CC[C@H]4[C@H](C)CC[C@@H]([C@H]1C)[C@@]24OO3
2.58
Cc1cc(O)cc(C)c1/C=C/c1cncc(C(N)=O)c1
75.99
Nc1nonc1-c1nc2cnccc2n1C1CCCCC1
7.234

response.value for NCc1ccc(-n2c(-c3nonc3N)nc3cnccc32)cc1 (field: MOLM-13 %inh) = 27.71

response.value for Cn1cc(C2=C(c3cn(C)c4cc(C(N)=O)ccc34)C(=O)NC2=O)c2ccccc21 (field: MOLM-13 %inh) = 63.24

response.value for CS(=O)(=O)CCNCc1ccc(-c2ccc3ncnc(Nc4ccc(OCc5ccccc5)c(Br)c4)c3c2)o1 (field: MOLM-13 %inh) = 0.135

response.value for Nc1c(C(=O)c2cccc(-c3ccncc3)c2)cnn1-c1ccc(F)cc1F (field: MOLM-13 %inh) = 13.91

response.value for O=C(Nc1ccc(Oc2ccc3[nH]c(NC(=O)c4ccco4)nc3c2)cc1)Nc1cc(C(F)(F)F)ccc1F (field: MOLM-13 %inh) = 87.05

* * *

# System: MOLM-13
# Parameters: species or system AML cell lines (8); Primary HTS, single concentration about 10 uM, Cell Titer Glo viability; log10 luminescence, per cent inhibition relative to cycloheximide control
# Experimental Setup: 72 h, relative to cycloheximide control, log10 luminescence, inhibitor, MOLM-13 %inh, 10 µM
Counter-ions that a name gives are not always drawn.
Observable: MOLM-13 %inh
Please answer in the form of a number followed by its unit of measurement.

C[C@@H]1CN(c2c(F)c(N)c3c(=O)c(C(=O)O)cn(C4CC4)c3c2F)C[C@H](C)N1
-3.504%

response.value for CO[C@@H]1[C@H](OC(=O)/C=C/C=C/C=C/C=C/C(=O)O)CC[C@]2(CO2)[C@H]1[C@@]1(C)O[C@@H]1CC=C(C)C (field: MOLM-13 %inh) = 10.06%

response.value for COc1ccc2cc(CCC(C)=O)ccc2c1 (field: MOLM-13 %inh) = 0.1221%

response.value for Nc1ncnc2occ(-c3ccc(NC(=O)Nc4cc(C(F)(F)F)ccc4F)cc3)c12 (field: MOLM-13 %inh) = 82.99%

response.value for CC[C@H]1OC(=O)[C@H](C)[C@@H](O[C@H]2C[C@@](C)(OC)[C@@H](O)[C@H](C)O2)[C@H](C)[C@@H](O[C@@H]2O[C@H](C)C[C@H](N(C)C)[C@H]2O)[C@](C)(OC)C[C@@H](C)C(=O)[C@H](C)[C@@H](O)[C@]1(C)O (field: MOLM-13 %inh) = 0.6227%

response.value for CC(C)(C)C(=O)Oc1ccc(S(=O)(=O)Nc2ccccc2C(=O)NCC(=O)O)cc1 [SJ000556638-3, SIVELESTAT SODIUM SALT] (field: MOLM-13 %inh) = -1.044%

response.value for C[C@H]1O[C@@H](O[C@H]2[C@@H](O)C[C@H](O[C@H]3[C@@H](O)C[C@H](O[C@H]4CC[C@@]5(C)[C@H](CC[C@@H]6[C@@H]5C[C@@H](O)[C@]5(C)[C@@H](C7=CC(=O)OC7)CC[C@]65O)C4)O[C@@H]3C)O[C@@H]2C)C[C@H](O)[C@@H]1O [SJ000285739-7, DIGOXIN] (field: MOLM-13 %inh) = 85.14%

* * *

# System: CMS
# Method Description: Secondary dose-response HTS, Cell Titer Glo
# Format: cell-based, human
# Experimental Setup: Homo sapiens, HTS; secondary high-throughput screen; CMS; read-out: average effective concentration, CMS
Numbered stars: 1 amine (or outer) side, 2 acyl side, 3 side chain; on linkers, the order of the positions; unused ones are H or OH. Bridge positions count the residues as written; N and C are the ends. Square brackets hold non-standard residues; d marks the D form. Peptide text beside a SMILES is read from it. I, II: the chains in the order shown. Actinocin(9to1) = Cc1c2oc3c(C)ccc(C(=O)[*:1])c3nc-2c(C(=O)[*:2])c(N)c1=O; NMeV = CN[C@H](C(=O)O)C(C)C; Sar = CNCC(=O)O
Observable: EC50 (nM)
Your answer should be a plain number; it is taken to be in nM.

response.value for Cc1c2oc3c(C)ccc(C(=O)N[C@@H]4C(=O)N[C@H](C(C)C)C(=O)N5CCC[C@H]5C(=O)N(C)CC(=O)N(C)[C@@H](C(C)C)C(=O)O[C@@H]4C)c3nc-2c(C(=O)N[C@@H]2C(=O)N[C@H](C(C)C)C(=O)N3CCC[C@H]3C(=O)N(C)CC(=O)N(C)[C@@H](C(C)C)C(=O)O[C@@H]2C)c(N)c1=O [Dactinomycin, reference compound] (I: T[dV]P[Sar][NMeV] / II: T[dV]P[Sar][NMeV]; ester I:1-I:C, II:1-II:C; linker I:N-II:N via Actinocin(9to1)) (field: EC50) = 36

* * *

Measured MOLM-13 %inh accompanies every entry in the list below.
# Tested on: MOLM-13
# Set-up: species or system AML cell lines (8); Primary HTS, single concentration about 10 uM, Cell Titer Glo viability; log10 luminescence, per cent inhibition relative to cycloheximide control
# Experimental Setup: 72 h, relative to cycloheximide control, log10 luminescence; inhibitor
Your answer should be a plain number; it is taken to be in %.

Oc1c(Cl)cc(Cl)c2cccnc12
6.345
O=C(Nc1n[nH]c2cc(-c3ccccc3)ccc12)C1CC1
40.31
CCCCC[C@H](CC(=O)NO)C(=O)N[C@H](C(=O)N1CCC[C@H]1CO)C(C)C
22.93

Let's switch to this molecule now.
The value of MOLM-13 %inh recorded for Cn1c(=O)c(Cc2ccc(F)cc2F)cc2cnc(NC3CCOCC3)nc21 when tested on MOLM-13 reads 4.514

* * *

# System: M07e
# Method Description: cells
# Design: species or system AML cell lines (8); Secondary HTS, 10-point dose-response in triplicate, Cell Titer Glo viability, four-parameter fit EC50
# Experimental Setup: M-07e, 72 h, read-out: M07e
Measured EC50 accompanies every entry in the list below.

These solved cases illustrate the format of a correct answer.
O=c1[nH]c(=O)n([C@H]2C[C@H](O)[C@@H](CO)O2)cc1/C=C/Br [BRIVUDINE]
> 10 µM
COc1cc(O)c2c(c1)/C=C/C[C@H](O)[C@H](O)C(=O)/C=C\C[C@H](C)OC2=O [SJ000773172, (5Z)-7-OXOZEAENOL]
0.84 µM
N[C@H](CCC(=O)N[C@@H](Cc1c[nH]c2ccccc12)C(=O)O)C(=O)O [SJ000795988, GOLOTIMOD]
> 10 µM
CC[C@H](C)C(=O)O[C@H]1CCC=C2C=C[C@H](C)[C@H](CC[C@@H]3C[C@@H](O)CC(=O)O3)[C@H]21 [MEVASTATIN]
> 10 µM
CC(C)Oc1ccc(-c2cnc3c(-c4ccnc5ccccc45)cnn3c2)cc1 [SJ000796016, DMH-1]
> 10 µM

response.value for CC(C)NCCCn1c(Sc2cc3c(cc2I)OCO3)nc2c(N)ncnc21 [SJ000821568, PU-H71] (field: EC50) = > 10 µM

response.value for Cn1cncc1[C@@](N)(c1ccc(Cl)cc1)c1ccc2c(c1)c(-c1cccc(Cl)c1)cc(=O)n2C [TIPIFARNIB] (field: EC50) = > 10 µM

response.value for CCc1nc(N)nc(N)c1-c1ccc(Cl)cc1 [PYRIMETHAMINE] (field: EC50) = > 10 µM

response.value for Oc1ccc(/C=C/c2cc(O)cc(O)c2)cc1 [RESVERATROL] (field: EC50) = > 10 µM

response.value for CCOC(=O)c1ccc(C#Cc2ccc3c(c2)C(C)(C)CCS3)nc1 [TAZAROTENE] (field: EC50) = > 10 µM

response.value for CCC(C)(C)C(=O)O[C@H]1C[C@@H](C)C=C2C=C[C@H](C)[C@H](CC[C@@H]3C[C@@H](O)CC(=O)O3)[C@H]21 [SIMVASTATIN] (field: EC50) = > 10 µM
